Target: SOS1 in K562 cells (Homo sapiens)
Construct: endogenous in cells; host or cells: K562
Sequence (Q07889 whole entry): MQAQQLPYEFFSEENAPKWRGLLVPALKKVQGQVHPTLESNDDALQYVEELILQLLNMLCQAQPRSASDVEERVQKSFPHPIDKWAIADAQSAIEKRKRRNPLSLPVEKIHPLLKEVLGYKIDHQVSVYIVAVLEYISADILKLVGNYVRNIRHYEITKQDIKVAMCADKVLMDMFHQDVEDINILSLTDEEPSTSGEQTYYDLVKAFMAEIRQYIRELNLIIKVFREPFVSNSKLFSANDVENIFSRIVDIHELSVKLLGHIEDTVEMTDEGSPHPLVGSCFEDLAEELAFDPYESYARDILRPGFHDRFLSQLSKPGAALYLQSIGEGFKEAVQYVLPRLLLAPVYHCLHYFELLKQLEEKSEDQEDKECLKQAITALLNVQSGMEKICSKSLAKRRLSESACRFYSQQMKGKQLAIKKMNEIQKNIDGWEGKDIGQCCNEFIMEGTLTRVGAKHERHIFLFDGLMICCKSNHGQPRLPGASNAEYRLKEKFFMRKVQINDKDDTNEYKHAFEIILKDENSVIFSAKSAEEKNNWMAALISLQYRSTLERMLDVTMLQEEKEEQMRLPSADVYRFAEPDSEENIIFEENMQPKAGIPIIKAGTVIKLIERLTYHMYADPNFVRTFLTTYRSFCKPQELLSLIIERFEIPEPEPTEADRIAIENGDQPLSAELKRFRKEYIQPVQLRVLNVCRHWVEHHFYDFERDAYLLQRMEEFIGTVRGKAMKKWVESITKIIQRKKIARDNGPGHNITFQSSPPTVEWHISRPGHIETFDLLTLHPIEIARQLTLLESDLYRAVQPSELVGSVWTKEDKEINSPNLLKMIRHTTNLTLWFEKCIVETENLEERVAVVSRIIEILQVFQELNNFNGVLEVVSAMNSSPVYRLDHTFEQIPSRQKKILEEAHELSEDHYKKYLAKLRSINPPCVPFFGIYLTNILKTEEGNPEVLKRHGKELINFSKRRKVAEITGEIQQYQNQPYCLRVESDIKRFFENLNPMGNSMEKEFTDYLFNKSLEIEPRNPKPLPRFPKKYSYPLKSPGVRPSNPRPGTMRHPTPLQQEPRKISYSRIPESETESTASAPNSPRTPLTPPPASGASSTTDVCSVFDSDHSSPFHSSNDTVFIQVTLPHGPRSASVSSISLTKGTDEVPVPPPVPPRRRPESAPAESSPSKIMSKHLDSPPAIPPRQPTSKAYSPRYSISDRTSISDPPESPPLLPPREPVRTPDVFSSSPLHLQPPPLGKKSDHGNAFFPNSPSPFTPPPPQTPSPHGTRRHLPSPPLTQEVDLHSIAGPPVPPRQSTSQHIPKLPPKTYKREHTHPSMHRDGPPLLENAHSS
Assay: SOS1 degradation in K562 cells (Western blot)
Assay type: cell-based
Conditions: 0.1 μM
property_label: percent SOS1 degradation at 0.1 µM (%)

[[record]]
compound = "COc1cc2nc(C)nc(N[C@H](C)c3cc(N)cc(C(F)(F)F)c3)c2cc1O[C@H]1CCN(C(=O)CCCCCCCCCSc2cccc3c2CN(C2CCC(=O)NC2=O)C3=O)C1 (some centres unmarked)"
property_label = "percent SOS1 degradation at 0.1 µM"
reading = -10.2

[[record]]
compound = "COc1cc2nc(C)nc(N[C@H](C)c3cc(N)cc(C(F)(F)F)c3)c2cc1O[C@H]1CCN(C(=O)CCCCCSc2cccc3c2CN(C2CCC(=O)NC2=O)C3=O)C1 (some centres unmarked)"
property_label = "percent SOS1 degradation at 0.1 µM"
reading = 53.5

[[record]]
compound = "COc1cc2nc(C)nc(N[C@H](C)c3cc(N)cc(C(F)(F)F)c3)c2cc1O[C@H]1CCN(C(=O)CCCCCCCCCCCSc2cccc3c2CN(C2CCC(=O)NC2=O)C3=O)C1 (some centres unmarked)"
property_label = "percent SOS1 degradation at 0.1 µM"
reading = 21.3

[[record]]
compound = "COc1cc2nc(C)nc(N[C@H](C)c3cc(N)cc(C(F)(F)F)c3)c2cc1O[C@H]1CCN(CCCCCCCCCCCSc2cccc3c2CN(C2CCC(=O)NC2=O)C3=O)C1 (some centres unmarked)"
property_label = "percent SOS1 degradation at 0.1 µM"
reading = 4.6

[[record]]
compound = "COc1cc2nc(C)nc(N[C@H](C)c3cc(N)cc(C(F)(F)F)c3)c2cc1O[C@H]1CCN(CCCCCCCCCCCCSc2cccc3c2CN(C2CCC(=O)NC2=O)C3=O)C1 (some centres unmarked)"
property_label = "percent SOS1 degradation at 0.1 µM"
reading = 30.4

[[record]]
compound = "COc1cc2nc(C)nc(N[C@H](C)c3cc(N)cc(C(F)(F)F)c3)c2cc1O[C@H]1CCN(C(=O)CCCCSc2cccc3c2CN(C2CCC(=O)NC2=O)C3=O)C1 (some centres unmarked)"
property_label = "percent SOS1 degradation at 0.1 µM"
reading = 22.7

[[record]]
compound = "COc1cc2nc(C)nc(N[C@H](C)c3cc(N)cc(C(F)(F)F)c3)c2cc1OC1CCN(C(=O)CCCCCSc2cccc3c2CN(C2CCC(=O)NC2=O)C3=O)CC1 (some centres unmarked)"
property_label = "percent SOS1 degradation at 0.1 µM"
reading = 11.3

[[record]]
compound = "COc1cc2nc(C)nc(N[C@H](C)c3cc(N)cc(C(F)(F)F)c3)c2cc1O[C@H]1CCN(C(=O)CSc2cccc3c2CN(C2CCC(=O)NC2=O)C3=O)C1 (some centres unmarked)"
property_label = "percent SOS1 degradation at 0.1 µM"
reading = -26.5

[[record]]
compound = "COc1cc2nc(C)nc(N[C@H](C)c3cc(N)cc(C(F)(F)F)c3)c2cc1O[C@H]1CCN(C(=O)CCCCCCCCCCSc2cccc3c2CN(C2CCC(=O)NC2=O)C3=O)C1 (some centres unmarked)"
property_label = "percent SOS1 degradation at 0.1 µM"
reading = 1.1

[[record]]
compound = "COc1cc2nc(C)nc(N[C@H](C)c3cc(N)cc(C(F)(F)F)c3)c2cc1OC1CCN(C(=O)CCCCCCCCCSc2cccc3c2CN(C2CCC(=O)NC2=O)C3=O)CC1 (some centres unmarked)"
property_label = "percent SOS1 degradation at 0.1 µM"
reading = 3.6

[[record]]
compound = "COc1cc2nc(C)nc(N[C@H](C)c3cc(N)cc(C(F)(F)F)c3)c2cc1OC1CCN(C(=O)CCCCCCSc2cccc3c2CN(C2CCC(=O)NC2=O)C3=O)CC1 (some centres unmarked)"
property_label = "percent SOS1 degradation at 0.1 µM"
reading = 18.2

[[record]]
compound = "COc1cc2nc(C)nc(N[C@H](C)c3cc(N)cc(C(F)(F)F)c3)c2cc1OC1CCN(C(=O)CSc2cccc3c2CN(C2CCC(=O)NC2=O)C3=O)CC1 (some centres unmarked)"
property_label = "percent SOS1 degradation at 0.1 µM"
reading = 12.3

[[record]]
compound = "COc1cc2nc(C)nc(N[C@H](C)c3cc(N)cc(C(F)(F)F)c3)c2cc1OC1CCN(C(=O)CCCCCCCCCCCSc2cccc3c2CN(C2CCC(=O)NC2=O)C3=O)CC1 (some centres unmarked)"
property_label = "percent SOS1 degradation at 0.1 µM"
reading = -5.4

[[record]]
compound = "COc1cc2nc(C)nc(N[C@H](C)c3cc(N)cc(C(F)(F)F)c3)c2cc1OC1CCN(C(=O)CCCCSc2cccc3c2CN(C2CCC(=O)NC2=O)C3=O)CC1 (some centres unmarked)"
property_label = "percent SOS1 degradation at 0.1 µM"
reading = 5.2

[[record]]
compound = "COc1cc2nc(C)nc(N[C@H](C)c3cc(N)cc(C(F)(F)F)c3)c2cc1O[C@H]1CCN(C(=O)CCCCCCCCSc2cccc3c2CN(C2CCC(=O)NC2=O)C3=O)C1 (some centres unmarked)"
property_label = "percent SOS1 degradation at 0.1 µM"
reading = 44.4

[[record]]
compound = "COc1cc2nc(C)nc(N[C@H](C)c3cc(N)cc(C(F)(F)F)c3)c2cc1OC1CCN(C(=O)CCSc2cccc3c2CN(C2CCC(=O)NC2=O)C3=O)CC1 (some centres unmarked)"
property_label = "percent SOS1 degradation at 0.1 µM"
reading = -14.7

[[record]]
compound = "COc1cc2nc(C)nc(N[C@H](C)c3cc(N)cc(C(F)(F)F)c3)c2cc1O[C@H]1CCN(C(=O)CCCCCCSc2cccc3c2CN(C2CCC(=O)NC2=O)C3=O)C1 (some centres unmarked)"
property_label = "percent SOS1 degradation at 0.1 µM"
reading = 26.7

